# MEASUREMENT TARGET: recombinant renin in human plasma (Homo sapiens, UniProt P00797)
# Sequence (P00797 67-406): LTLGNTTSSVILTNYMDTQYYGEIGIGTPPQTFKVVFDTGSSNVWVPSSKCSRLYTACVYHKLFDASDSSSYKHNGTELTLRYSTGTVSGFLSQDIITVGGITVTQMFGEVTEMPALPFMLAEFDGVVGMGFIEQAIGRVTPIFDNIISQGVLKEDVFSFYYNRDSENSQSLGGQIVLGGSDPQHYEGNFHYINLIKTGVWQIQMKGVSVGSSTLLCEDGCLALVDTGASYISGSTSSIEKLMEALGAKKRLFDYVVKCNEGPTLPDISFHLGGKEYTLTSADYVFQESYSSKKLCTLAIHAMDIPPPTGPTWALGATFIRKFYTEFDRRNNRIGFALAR
# RUN DESCRIPTION: Inhibition of renin in human plasma (QFRET, plasma)
# CONDITION PARAMETERS: human EDTA plasma with 1 nM recombinant renin added; 37° C., 1 hour
MEASURED ATTRIBUTE: IC50 (nM)

Recorded results for 4 molecules are shown here.
COCCCc1cccc(C)c1-c1ccc([C@H]2CNCC[C@@H]2c2cccnc2)c(C)c1 (racemic) = 150
O[C@]1(c2ccc(F)c(F)c2)CCNC[C@@H]1c1onc(-c2cccc(Cl)c2Cl)c1Br = 7.8
COC(=O)NCCc1ccccc1-c1ccc([C@H]2CNCC[C@@H]2c2cc(F)cc(F)c2)c(C)c1 (racemic) = 25
CC(=O)NCCc1ccccc1-c1onc([C@H]2CNCC[C@]2(O)c2ccc(C)c(F)c2)c1Br = 29

[a] COCCCC(CNC(C)=O)c1ccccc1-c1onc([C@H]2CNCC[C@@H]2c2ccc(OCCOc3c(Cl)cc(C)cc3Cl)cc2)c1Br (stereo partly drawn)
[b] COc1cc(CCNC(C)=O)c(-c2ccc([C@H]3CNCC[C@@H]3c3ccn(C)c(=O)c3)c(Cl)c2)cc1OC (racemic)
[c] Cc1cc(-c2ccccc2CCNC(=O)C(C)C)ccc1[C@H]1CNCC[C@@H]1c1cc(F)cc(F)c1 (racemic)
Problem: Order by IC50, ascending. Output spec: labels arranged per the requested ranking.
Solution: a, c, b
(a: 2 nM, c: 1150 nM, b: 4900 nM)

[a] CCC(=O)NCCc1ccccc1-c1ccc([C@H]2CNCC[C@@H]2c2ccn(C)c(=O)c2)c(Cl)c1 (racemic)
[b] COCC(F)(F)COCc1ccc([C@@]2(O)CCNC[C@@H]2c2ccc(-c3ccccc3CCNC(C)=O)cc2C)cn1
Problem: Would you mind telling me which has the lower recorded IC50 between a and b ? Label of pick, please.
Solution: b
(b: 1.2 nM, a: 7.9 nM)

* * *

# MEASUREMENT TARGET: recombinant renin in human plasma (Homo sapiens, UniProt P00797)
# RUN DESCRIPTION: Inhibition of renin in human plasma (QFRET, plasma)
# CONDITION PARAMETERS: human EDTA plasma with 1 nM recombinant renin added; 37° C., 1 hour
MEASURED ATTRIBUTE: IC50 (µM)

Recorded results for 3 compounds are shown here.
CC(=O)NCCc1ccccc1-c1ccc([C@H]2CNCC[C@@H]2c2ccc(F)c(F)c2)cc1 (racemic) = 0.045
CC(=O)NCCc1ccccc1-c1onc([C@H]2CNCC[C@@H]2c2ccc(F)c(F)c2)c1Br = 0.0012
CC(=O)NCCc1ccccc1-c1onc([C@H]2CNCC[C@]2(OCC(O)CO)c2ccc(F)c(F)c2)c1Br (stereo partly drawn) = 0.0014

[I] Cc1cc(-c2ccccc2CCNC(=O)c2ccccc2)ccc1[C@H]1CNCC[C@@H]1c1cc(F)cc(F)c1 (racemic)
[II] O[C@]1(c2ccc(F)c(F)c2)CCNC[C@@H]1c1cn(-c2ccc(F)cc2Br)nn1
Problem: Would you mind telling me which has the lower recorded IC50 between I and II ? Label of pick, please.
Solution: I
(I: 1.17 µM, II: 9.47 µM)

* * *

The entries below are paired with their reported pIC50.
# MEASUREMENT TARGET: recombinant renin in human plasma (Homo sapiens)
# RUN DESCRIPTION: Inhibition of renin in human plasma (QFRET, plasma)
# CONDITION PARAMETERS: human EDTA plasma with 1 nM recombinant renin added; 37° C., 1 hour
pIC50: −log10 of the molar value.

Recorded results for 2 compounds are shown here.
COCCCc1ccccc1-c1ccc([C@H]2CNCC[C@@H]2c2ccccc2)c(C)c1 (racemic) [Structure 1] = < 5.00
Cc1cc(-c2ccccc2OCc2cccnc2)ccc1[C@H]1CNCC[C@@H]1c1cc(F)cc(F)c1 (racemic) [Structure 38] = < 4.55

Now let's try a different one.
Problem: So what pIC50 did Cc1cc(-c2ccccc2CCCO)ccc1[C@H]1CNCC[C@@H]1c1cccc2nc[nH]c12 (racemic) [Structure 9] get with recombinant renin in human plasma (Homo sapiens)?
Solution: < 5.02
